experimentalProtocol: anti-Giardia activity of synthetic compounds – Compounds Australia Scaffold Library subset, 24/48 h, primary screen (AID 1794835);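 further: 0% = parasite counts in DMSO vehicle wells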
studyConditions: Giardia lamblia BRIS/91/HEPU/1279 trophozoite counts, imaging, at 10 µM
Among all 2,500 compounds or so, about 45 (2%) were called active. No stated cut-off is given here; in the data, active means inhibition mostly above about 45% (no sharp cut-off); inactive means mostly below about 37%. The sample as a whole holds a higher share of actives than the screen did.
# valid calls are yes (1) (active), no (0) (inactive); nothing else

Any idea what this test logged for CN(C)CCn1cc(C(=O)c2cc(Cl)ccc2O)cc1-c1nc2ccccc2c(=O)[nH]1 ? yes (1)

Any idea what this test logged for Cc1ccnc(N2CCCC(C(=O)N3CC=C(c4ccccc4)CC3)C2)n1 (stereo unspecified) ? yes (1)

Any idea what this test logged for O=S(=O)(Cc1ccccc1)Nc1cccc(-c2nnc(Cc3ccc4c(c3)OCO4)o2)c1 ? yes (1)

Any idea what this test logged for Cc1ccc(C)c(-c2cc3c4nn(CC(=O)N(C)c5ccc(F)cc5)c(=O)n4ccn3n2)c1 ? yes (1)

Any idea what this test logged for Cc1ccc(NC(=O)c2ccc(=O)n(CCN3CCOCC3)n2)cc1 ? no (0)

Any idea what this test logged for Fc1cccc(Nc2c3c(nc4ccccc24)CCC3)c1 ? yes (1)

Any idea what this test logged for CN(C)CCCN1C(=O)C(=O)C(=C(O)c2cc(Cl)ccc2O)C1c1ccco1 (stereo unspecified) ? no (0)

Any idea what this test logged for Cc1ccccc1C(=O)Nc1cnc(N2CCNCC2)c(C(=O)N(C)Cc2ccccc2)c1 ? no (0)

Any idea what this test logged for Cc1ccc(NC(=O)c2oc3ccccc3c2NC(=O)c2ccccc2)cc1 ? no (0)

Any idea what this test logged for Cc1cnn(CC(C)NCc2nc(-c3ccccn3)no2)c1 (stereo unspecified) ? no (0)

Any idea what this test logged for Cc1ccnc(N2CCCC(C(=O)NC3CCCC3)C2)n1 (stereo unspecified) ? no (0)

Any idea what this test logged for Cc1cccc(C)c1NC(=O)c1cc(-c2ccccc2)nc2c1cnn2Cc1cccnc1 ? no (0)

Any idea what this test logged for CCc1nc(-c2cc(S(=O)(=O)NCc3ccc(F)c(Cl)c3)c(C)s2)cs1 ? yes (1)

Any idea what this test logged for Cc1nn(C)c2sc(C(=O)N3CCN(S(=O)(=O)c4ccc(Br)cc4)CC3)cc12 ? no (0)

Any idea what this test logged for Cc1sc(C(=O)N2CCCC2)c2ncnc(NCc3ccc(F)c(Cl)c3)c12 ? no (0)

Any idea what this test logged for COc1cccc(Nc2c3c(nc4ccccc24)CCC3)c1 ? yes (1)

Any idea what this test logged for Cc1ccc2c(c1)NC(c1ccc(C)o1)=NC(c1cccs1)=N2 ? yes (1)

Any idea what this test logged for Cc1cccc(CNS(=O)(=O)c2cc(-c3csc(C)n3)sc2C)c1 ? yes (1)

Any idea what this test logged for CCN(CC)CCN1C(=O)C(O)=C(C(=O)c2cccs2)C1c1ccc(C)o1 (stereo unspecified) ? no (0)

Any idea what this test logged for COc1cccc(Nc2nc(N3CCN(c4ccccc4)CC3)nc3c2cnn3C)c1 ? no (0)

Any idea what this test logged for CC1CCN(C(=O)c2oc3ccccc3c2NC(=O)c2ccc([N+](=O)[O-])o2)CC1 ? yes (1)

* * *

experimentalProtocol: anti-Giardia activity of synthetic compounds – Compounds Australia Scaffold Library subset, 24/48 h, primary screen (AID 1794835);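 further: 0% = parasite counts in DMSO vehicle wells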
studyConditions: Giardia lamblia BRIS/91/HEPU/1279 trophozoite counts, imaging, measured here: growth inhibition at 24 h, at 10 µM, stronger effect = higher value
The campaign covered roughly 2,500 compounds. About 45 (2%) were called active. The sample holds actives, similar compounds and a random draw of the others, so the mix is not that of the screen.
So I've got a bunch of compounds here, and I need their inhibition values.
Number in %, nothing else.

Tell me the measured inhibition of Cc1ccc(C(=O)Nc2cc(-c3nc(C)cs3)sc2C)cc1 , please. 28

Tell me the measured inhibition of COc1ccc(C2(C(=O)N3CCC(Cc4nc(-c5ccc(F)cc5)no4)CC3)CC2)cc1 , please. 11.4

Tell me the measured inhibition of CCCCN(CCCC)S(=O)(=O)c1ccc2c(c1)CCCC(=O)N2 , please. 13.8

Tell me the measured inhibition of Cc1cccc(CNS(=O)(=O)c2cc(-c3csc(C)n3)sc2C)c1 , please. 21.2

Tell me the measured inhibition of CN1C(=O)c2cc(NC(=O)c3ccc4c(c3)OCO4)ccc2N2CCN=C12 , please. 11.7

Tell me the measured inhibition of Cc1ccc(C(=O)N2CCC(Oc3ncccc3C(=O)N3CCCCC3)C2)c(C)c1 (stereo unspecified) , please. 0.6

Tell me the measured inhibition of CCc1nnc(-c2nnc(NCc3ccc4c(c3)OCO4)c3ccccc23)o1 , please. 3

Tell me the measured inhibition of O=S1(=O)CCC(n2cc(-c3cnn(-c4ccccc4)c3)cn2)C1 (stereo unspecified) , please. 45.5

Tell me the measured inhibition of O=[N+]([O-])c1cc(F)ccc1Sc1nnc(N2CCOCC2)s1 , please. 30.9

Tell me the measured inhibition of CC(=O)Nc1nsc(N2CCCC(C(=O)NCc3ccccc3Cl)C2)n1 (stereo unspecified) , please. 4.9

Tell me the measured inhibition of CN(C)C(=O)Cc1nc(CN2CCc3c(ncn3C)C2)cs1 , please. 1.4

Tell me the measured inhibition of CCOc1ccc(C(=O)Nc2ccc3c(c2)N(C(C)C)C(=O)c2ccccc2O3)cc1 , please. 18.7

Tell me the measured inhibition of COc1cccc(N2CCN(C(=O)C3CCN(c4nc(NC(C)=O)ns4)CC3)CC2)c1 , please. 7.9

Tell me the measured inhibition of Cn1cc2c(n1)c(=O)n(Cc1ccccc1)c(=O)n2CC(=O)Nc1cccc(F)c1 , please. 30.6

Tell me the measured inhibition of COc1ccc(C(=O)Nc2cc(-c3nc(C)cs3)sc2C)cc1OC , please. 11.4

Tell me the measured inhibition of CCc1nc(-c2cc(S(=O)(=O)NCc3ccc(F)c(Cl)c3)c(C)s2)cs1 , please. 15.2

Tell me the measured inhibition of O=S(=O)(Cc1ccccc1)Nc1cccc(-c2nnc(Cc3ccc4c(c3)OCO4)o2)c1 , please. 17.2

Tell me the measured inhibition of Cc1ccc(-c2ncc(C(=O)NC3CCCCCC3)c(C)n2)cc1 , please. 6.7

Tell me the measured inhibition of Cc1nc2c(c(=O)n1CC(=O)Nc1cccc(F)c1)CCN(Cc1ccccc1)C2 , please. 12

Tell me the measured inhibition of Cc1ccc(C)c(NC(=O)Cc2nc(Cn3cnc([N+](=O)[O-])c3)cs2)c1 , please. 8.45

Tell me the measured inhibition of Cc1ccc(-n2c(=O)c3c(cnn3C)n(CC(=O)Nc3ccccc3C)c2=O)cc1 , please. 53.9

* * *

experimentalProtocol: anti-Giardia activity of synthetic compounds – Compounds Australia Scaffold Library subset, 24/48 h, primary screen (AID 1794835);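 further: 0% = parasite counts in DMSO vehicle wells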
studyConditions: Giardia lamblia BRIS/91/HEPU/1279 trophozoite counts, imaging, at 10 µM, stronger effect = higher value
Among all 2,500 compounds or so, about 45 (2%) were called active. The sample holds actives, similar compounds and a random draw of the others, so the mix is not that of the screen.
readoutKind: inhibition (%)
Number in %, nothing else.

Tell me the measured inhibition of COc1ccc(CNC(=O)N2CCC(c3ccn4ncc(C(=O)N5CCOCC5)c4c3)CC2)cc1 , please. 0.7

Tell me the measured inhibition of CC(=O)Nc1nsc(N2CCCC(C(=O)NCc3ccccc3Cl)C2)n1 (configuration not stated) , please. 5.9

Tell me the measured inhibition of Cn1cc2c(n1)c(=O)n(Cc1ccccc1)c(=O)n2CC(=O)Nc1cccc(F)c1 , please. 62.8

Tell me the measured inhibition of CN(C)C(=O)CN1CCCN(Cc2ncc(C(C)(C)C)o2)CC1 , please. 1.9

Tell me the measured inhibition of COc1ccc(Nc2cc(C)nc(N3CCN(C(=O)c4ccccc4)CC3)n2)cc1 , please. 29.3

Tell me the measured inhibition of Cc1noc(-c2c(C)sc(C)c2S(=O)(=O)NCc2ccccc2)c1C , please. 30.5

Tell me the measured inhibition of CCCNS(=O)(=O)c1cc(-c2nc(-c3cccc(Cl)c3)cs2)n(C)c1C , please. 32.9

Tell me the measured inhibition of COc1ccc(C(=O)Nc2cc(-c3nc(C)cs3)sc2C)cc1OC , please. 27.2

Tell me the measured inhibition of Cc1ccc(C)c(NC(=O)Cc2nc(Cn3cnc([N+](=O)[O-])c3)cs2)c1 , please. 59.9

Tell me the measured inhibition of Nc1c(-c2nc(-c3ccccc3)cs2)c2ccccn2c1C(=O)c1ccc2c(c1)OCO2 , please. 83.1

Tell me the measured inhibition of COc1ccc(C2=Nc3ccccc3N(CC(=O)Nc3cccc(F)c3)C(=O)C2)cc1 , please. 40.3

Tell me the measured inhibition of COc1ccc(NC(=O)N2CCN(c3cc(C)nc(N4CCOCC4)n3)CC2)cc1 , please. 44.4

Tell me the measured inhibition of CCCCNC(=O)Cn1c(=O)c2c(C)cc(C)nc2n(-c2ccccc2)c1=O , please. 4.4

Tell me the measured inhibition of CCC1Cn2c(C(=O)NCCN(C)C3CCCCC3)cc3cccc(c32)O1 (configuration not stated) , please. 53.7

Tell me the measured inhibition of COc1ccc(Nc2cc(C)nc(N3CCN(C(=O)Nc4cccc(OC)c4)CC3)n2)cc1 , please. 86.6

Tell me the measured inhibition of Cc1ccccc1NC(=O)Cn1ccc2sccc2c1=O , please. 19.9

Tell me the measured inhibition of CCCCN(CCCC)S(=O)(=O)c1ccc2c(c1)CCCC(=O)N2 , please. 27.2

Tell me the measured inhibition of Cc1ccc(-c2nc3ccccc3n2Cc2cccc(F)c2)o1 , please. 16.3

Tell me the measured inhibition of Cc1ccc(NC(=O)Cc2nc(-c3ccc4c(c3)CC(=O)N4C)cs2)cc1 , please. 10

Tell me the measured inhibition of Cc1ccc(-n2c(=O)c3c(cnn3C)n(CC(=O)Nc3ccccc3C)c2=O)cc1 , please. 76.9

Tell me the measured inhibition of Cc1ccc(NC(=O)c2nnc(C3CCCN3C(=O)NC3CCCC3)s2)cc1 (configuration not stated) , please. 4.4

Tell me the measured inhibition of Cc1ccc(C(=O)Nc2cc(-c3nc(C)cs3)sc2C)cc1 , please. 56.1
